target: Pim 2 (Homo sapiens)
Sequence (Q9P1W9 whole entry): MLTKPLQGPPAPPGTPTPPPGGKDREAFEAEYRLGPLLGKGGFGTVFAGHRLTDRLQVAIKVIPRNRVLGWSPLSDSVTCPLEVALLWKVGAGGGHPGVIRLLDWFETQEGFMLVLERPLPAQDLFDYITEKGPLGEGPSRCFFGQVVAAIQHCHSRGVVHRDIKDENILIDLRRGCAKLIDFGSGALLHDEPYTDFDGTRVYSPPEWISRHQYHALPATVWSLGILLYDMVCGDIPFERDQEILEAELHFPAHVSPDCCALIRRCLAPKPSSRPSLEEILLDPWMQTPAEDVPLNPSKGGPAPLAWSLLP
pIC50: −log10 of the molar value.
Cut-off 9 on pIC50, inclusive. At or above means 1.0; below means 0.0.

Below, 5 compounds whose answers are already recorded.
N[C@H]1CCC[C@@H](c2ccncc2NC(=O)c2ccc(F)c(-c3c(F)cc(COC4CCOCC4)cc3F)n2)C1: 0.0
C[C@H]1CN(c2ccncc2NC(=O)c2ccc(F)c(-c3c(F)cc(C4CCS(=O)(=O)CC4)cc3F)n2)C[C@@H](N)[C@@H]1O: 1.0
C[C@H]1CN(c2ccncc2NC(=O)c2ccc(F)c(-c3c(F)cc([C@H](O)CO)cc3F)n2)C[C@@H](N)[C@@H]1O: 0.0
COC1(c2cc(F)c(-c3nc(C(=O)Nc4cnccc4N4C[C@@H](N)[C@H](O)[C@@H](C)C4)c(N)cc3F)c(F)c2)COC1: 1.0
C[C@H]1C[C@@H](c2ccncc2NC(=O)c2ccc(F)c(-c3c(F)cc(OC4CCOCC4)cc3F)n2)C[C@@H](N)[C@H]1O: 0.0

In the following, a different compound is considered.
Hi team, for C[C@@H]1C[C@H](N)C[C@H](c2ccncc2NC(=O)c2ccc(F)c(-c3c(F)cc(OCC4(C#N)CCOCC4)cc3F)n2)C1 , is the recorded pIC50 at or above 9?
0.0
